Assay: amyloid nucleation score (Sup35N fusion, yeast selection) (log enrichment); library NNK1; higher = more nucleation; inactive = no reads after selection;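 also: zero at mode of non-aggregating sequences after 7 days selection at 30°C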
Measure: amyloid nucleation score

| Sequence text | Assay value |
| --- | --- |
| LVPCSWFYLDRSAQDSDCFS | -0.754 |
| TSDRTKSVLMVYSWV | -0.576 |
| LISHPFDPLIKVGDIQMYSF | 0.012 |
| MSYSMVNGDSTF | 2.33 |
| SLVTDCYVPGFLYAMVIHAG | 1.01 |
| RIMYSRLDYWLAYPVISERG | -0.057 |
| YVWDAHIINVYLS | 6.51 |
| LKSSSCHQTSISHRALFCNL | -0.373 |

###

Assay: amyloid nucleation score (Sup35N fusion, yeast selection) (log enrichment); library NNK3; higher = more nucleation; inactive = no reads after selection

| Sequence text | amyloid nucleation score |
| --- | --- |
| CGGANVLYRVQYDPWRS | inactive |
| MPWKSMAHFYALEFDLRCLR | 0.619 |
| GVRHLYVPMFHFVIMGRWHH | inactive |
| TGVNFGRLLLISRSVLGVC | inactive |
| VNLSFNCWFDVVCVSSRF | 1.9 |
| TESCVDSMVAFHNLPYLFRL | inactive |
| VSLYCVIWIR | 1.22 |
| GSFNFCSNAARFQ | inactive |
| RITIMFGSLINDLHFCNA | 2.87 |
| KTASRCLYCLMKKKDCLPRV | inactive |
| GNEIGITGVYGLHRSAKVVV | inactive |
| IMMFIPWTSYLKYRIIMDYS | inactive |
| FPPCTLSKLGSGYHLSNESS | inactive |
| VRHVITSSG | inactive |
| LNWLAFSR | inactive |
| FHTPRILYTMNS | inactive |
| VRISMRDMVWSRFWLPVVLK | inactive |

###

Assay: amyloid nucleation score (Sup35N fusion, yeast selection) (log enrichment); library NNK3; higher = more nucleation; inactive = no reads after selection

| Substance | amyloid nucleation score |
| --- | --- |
| GDIRLGVAFRIFLSNCWGYF | inactive |
| KCAQEYGEVLS | -0.591 |
| CDRLYSNLLRVAAMAPKASW | inactive |
| SVLRYYSNESRLTVHLSVCI | inactive |
| NRAVHKSRWHRMRTFKDERR | inactive |
| ISTDSVIHTTMEHSGE | inactive |
| KKQGSWRKNITISRVCVVLG | inactive |
| LPKCGPRYFDWLNAPEDCMF | inactive |
| GQWELGHFQCKVPYLLSQLL | inactive |
| ALIRITRYYLSFTGY | inactive |
| NAVSDTGRKRECFRADRFLS | inactive |
| FFRSQKWKSAYMLDNGHSNS | inactive |
| TFGAVTCMSRCVKSSYNLKW | 1.35 |
| WSLCGDVRTQHINHVSVQVS | inactive |
| SLTEQNL | inactive |
| ENTCYRVGALIAAFTSFKLW | inactive |
| ECHRGDHINDYVRADNRFSL | inactive |
| IGVYWVLPPGFFGWQNTLMI | 0.161 |
| IMILFI | 0.13 |
| NQYLLCMLMWNARSGSRSMI | inactive |
| WLSYLLNG | 1.91 |
| SALVLPRSVSVDLIGVWDFK | inactive |
| LRSYFALINRLPCTCTRGGM | inactive |
| TKTISGHCPVLMSVFWSMAL | inactive |
| HMLYLNLFGIIGIIFCDWNM | inactive |
| HNQKSCVYMSEGSWRSL | inactive |
| QSLSVEH | inactive |
| LWMCLLMRRR | inactive |
| MNTACS | inactive |
| NAHPWGYWSIVMRNIKVVVL | inactive |
| PFSSGQSVEYL | inactive |
| SLFSEMSVYMQDYFWVT | inactive |
| FLCLMTTKTKCNF | inactive |
| SKTFNDPFLLNHLNTFIKPR | -0.259 |
| TICRCRWGIRPYLALCIHYS | inactive |
| PAGTICGCRHGRLWNGPSRW | inactive |
